target system: ZIKV NS1 (Zika virus, UniProt A0A024B7W1 795-1146)
assay details: ELONA; protein on Cu2+-coated plate; Hill slope fit; ELONA: borate buffer (60 mM in selection), 37 °C, 30 min, pH not stated; specificity: selection buffer, filtration, qPCR; FET: human serum as gate electrolyte
applied conditions: chain copies: 2; label: digoxigenin
readout name: Kd (nM)
Quick note: give the figure in nM, leave out the unit.

Reported Kd for ZIKV60 (digoxigenin-labeled) (ssDNA) DNA: CTTCTGCCCGCCTCCTTCCGGGCCCCGGGGGGTGTCCAGGCCCATGCGTCGTCCGCGGGGAGACGAGATAGGCGGACACT was 2.28

Entry source: paper PMC9443353
